# Organism: Rattus norvegicus
# procedure.details: Activity to induce the elevation of triglycerides of male Wistar rats
# Type: functional
# Set-up: concentration or dose not given beside the values
Field: Percent change in plasma triglycerides versus control. Provide a value for each of the molecules that follow.
Numbers only, in %.

Below are worked cases with known answers.
{"molecule": "COP(=O)(OC)OC(c1ccc(C(F)(F)F)cc1)P(=O)(OC)OC (stereo unspecified)", "observed": 4}
{"molecule": "COP(=O)(OC)OC(c1ccc(Cl)cc1)P(=O)(OC)OC (stereo unspecified) [MIFOBATE]", "observed": 0}
{"molecule": "COP(=O)(O)C(Cc1ccc(Cl)cc1)P(=O)(O)OC (stereo unspecified)", "observed": -30}
{"molecule": "COP(=O)(OC)C(CCCc1ccccc1)P(=O)(OC)OC", "observed": 42}

Report Percent change in plasma triglycerides versus control for every entry below.
1. COP(=O)(OC)C(CCCOc1ccccc1)P(=O)(OC)OC
2. COP(=O)(OC)OC(CC(C)(C)C)P(=O)(OC)OC (stereo unspecified)
3. CCCCOP(=O)(OCCCC)C(Cc1ccc(Cl)cc1)P(=O)(OCCCC)OCCCC
4. COP(=O)(OC)OC(c1ccc2ccccc2c1)P(=O)(OC)OC (stereo unspecified)

1: 2; 2: -9; 3: 1; 4: 28

Hey, quick one: what's Percent change in plasma triglycerides versus control for each of these?
1. COP(=O)(OC)OC(C1CCCCC1)P(=O)(OC)OC (stereo unspecified)
2. CCOP(=O)(OCC)C(CCCc1ccccc1)P(=O)(OCC)OCC
3. O=P(O)(O)C(Cc1ccccc1)P(=O)(O)O

[-46, 46, -11]

----------
# Species on record: Rattus norvegicus
# procedure.details: Activity to induce the elevation of alpha/beta cholesterol ratio in plasma lipids of male Wistar rats
# Format: functional
# Parameters: concentration or dose not given beside the values
Binary call on Control with cut-off -20%: strictly below means 1 (yes), and equality or higher means 0 (no).

In plain terms, does `COP(=O)(OC)C(Cl)(CCCOc1ccccc1)P(=O)(OC)OC` come in under -20% for Control?
1 (yes)

----------
# Species on record: Rattus norvegicus
# procedure.details: Activity to induce the elevation of HDL(High Density Lipoproteins)-Cholesterol in plasma lipids of male Wistar rats
# Type: functional
# Set-up: concentration or dose not given beside the values
Control below 10% gives False; Control at or above it gives True.

# example entries with known answers
{"smiles.representation": "CCCCCCCCCCCCCCCC(O)(P(=O)(OC)OC)P(=O)(OC)OC", "class.name": "False"}
{"smiles.representation": "CCOP(=O)(OCC)C(Cl)(CCCc1ccccc1)P(=O)(OCC)OCC", "class.name": "False"}
{"smiles.representation": "CCCCCCCCCCCCCCOc1ccc(CC(P(=O)(OC)OC)P(=O)(OC)OC)cc1", "class.name": "True"}
{"smiles.representation": "COP(=O)(OC)C(Cl)(CCCOc1ccccc1)P(=O)(OC)OC", "class.name": "True"}
{"smiles.representation": "CCCCCCCCCCCCCCOc1ccc(CC(P(=O)(OCC)OCC)P(=O)(OCC)OCC)cc1", "class.name": "True"}

Now look at this one.
Reported Control reaches at least 10% for `COP(=O)(OC)C(Cl)(CCCc1ccccc1)P(=O)(OC)OC` ?
True

----------
Assign Percent change in alpha/beta cholesterol ratio versus control to each entry below.
# Species on record: Rattus norvegicus
# procedure.details: Activity to induce the elevation of alpha/beta cholesterol ratio of male Wistar rats
# Assay type: functional
# Parameters: concentration or dose not given beside the values
Give bare numbers, in %.

The examples below pair each entry with its known result.
{"molecule": "CCOP(=O)(OCC)C(Cc1ccc(Cl)cc1)P(=O)(OCC)OCC", "result.units": "%", "observed": 22}
{"molecule": "O=P(O)(O)C(CCCc1ccccc1)P(=O)(O)O", "result.units": "%", "observed": 14}
{"molecule": "CCCCOP(=O)(OCCCC)C(Cc1ccc(Cl)cc1)P(=O)(OCCCC)OCCCC", "result.units": "%", "observed": 2}
{"molecule": "COc1ccc(C(OP(=O)(OC)OC)P(=O)(OC)OC)cc1 (configuration not stated)", "result.units": "%", "observed": 2}
{"molecule": "COP(=O)(OC)OC(c1ccccc1Cl)P(=O)(OC)OC (configuration not stated)", "result.units": "%", "observed": 34}

Quick batch: Percent change in alpha/beta cholesterol ratio versus control for everything below.
1. COP(=O)(OC)C(Cc1ccccc1)P(=O)(OC)OC
2. COP(=O)(OC)C(O)(C(C)(C)Oc1ccc(Cl)cc1)P(=O)(OC)OC
3. COP(=O)(OC)OC(c1ccc(C)cc1)P(=O)(OC)OC (configuration not stated)
4. COP(=O)(OC)C(CCCc1ccccc1)P(=O)(OC)OC
5. COP(=O)(OC)OC(CC(C)(C)C)P(=O)(OC)OC (configuration not stated)
6. COP(=O)(OC)OC(c1ccc(Cl)cc1Cl)P(=O)(OC)OC (configuration not stated)
7. COP(=O)(OC)C(O)(c1ccccc1)P(=O)(OC)OC

1: 22; 2: -8; 3: 47; 4: 49; 5: 44; 6: 39; 7: 80
